system: A549; test: Antiproliferative activity, SRB method; assay type: cell-based, human; conditions: Homo sapiens, A549, 10 µM, 72 h, read-out: mean proliferation inhibition at highest concentration used, A549
# inhibition at 10 µM per entry

compound	inhibition at 10 µM
CN[C@@H](C)C(=O)N[C@H](C(=O)N1CCC[C@H]1C(=O)NC(Cc1ccccc1)P(=O)(Oc1ccccc1)Oc1ccccc1)C1CCCCC1 (stereo partly drawn) [Compound 42]	23%
CN[C@@H](C)C(=O)N[C@H](C(=O)N1CCC[C@H]1C(=O)NC(Cc1ccccc1)P(=O)(Oc1ccccc1)Oc1ccccc1)C(C)C (stereo partly drawn) [Compound 41]	10%
CN[C@@H](C)C(=O)N[C@H](C(=O)N1CCC[C@H]1c1nc(C(=O)c2ccc(F)cc2)cs1)C1CCCCC1 [LCL-161, reference compound]	11%

###

target: XIAP BIR3 domain (Homo sapiens, UniProt P98170); construct: fluorescent probe 4 and the XIAP BIR3 domain (Sino Biological, Beijing, China) were used for all measurements; purchased Sino Biological, Beijing, China; experiment: Fluorescence polarization inhibition (competition) assay; format: binding; conditions: 0.5 h; antagonist 50 µM; inhibition of protein-probe interaction
Sequence (P98170 252-356 limits assumed): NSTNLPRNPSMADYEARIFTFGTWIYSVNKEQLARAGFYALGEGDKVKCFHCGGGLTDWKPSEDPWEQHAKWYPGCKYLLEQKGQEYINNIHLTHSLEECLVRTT
Please note: y applies when inhibition at 50 µM is 60% or greater, and n applies otherwise.

compound	class-assignment
CN[C@@H](C)C(=O)N[C@H](C(=O)N1CCC[C@H]1C(=O)NCP(=O)(c1ccccc1C)c1ccccc1C)C1CCCCC1	y
CN[C@@H](C)C(=O)N[C@H](C(=O)N1CCC[C@H]1C(=O)NC(C)P(=O)(Oc1ccc(C(C)(C)C)cc1)Oc1ccc(C(C)(C)C)cc1)C1CCCCC1 (stereo partly drawn)	y
CCC(NC(=O)[C@@H]1CCCN1C(=O)[C@@H](NC(=O)[C@H](C)NC)C(C)C)P(=O)(Oc1ccccc1)Oc1ccccc1 (stereo partly drawn)	n
CN[C@@H](C)C(=O)N[C@H](C(=O)N1CCC[C@H]1C(=O)NC(CCSC)P(=O)(Oc1ccccc1)Oc1ccccc1)C(C)C (stereo partly drawn)	y

###

test system: A549; experiment: Antiproliferative activity, SRB method; type: cell-based, human; conditions: Homo sapiens, A549, 10 µM, 72 h, read-out: mean proliferation inhibition at highest concentration used, A549
# inhibition at 10 µM per entry

molecule	inhibition at 10 µM (%)
CN[C@@H](C)C(=O)N[C@H](C(=O)N1CCC[C@H]1C(=O)NC(Cc1ccccc1)P(=O)(c1ccccc1)c1ccccc1)C(C)C (stereo partly drawn) [Compound 13]	2
CN[C@@H](C)C(=O)N[C@H](C(=O)N1CCC[C@H]1C(=O)NC(Cc1ccccc1)P(=O)(c1ccccc1)c1ccccc1)C1CCCCC1 (stereo partly drawn) [Compound 14]	5
CN[C@@H](C)C(=O)N[C@H](C(=O)N1CCC[C@H]1C(=O)Nc1snnc1-c1ccccc1)C1CCCCC1 [GDC-0152, reference compound]	13

###

# inhibition at 50 µM per entry
molecular target: XIAP BIR3 domain (Homo sapiens, UniProt P98170); construct: fluorescent probe 4 and the XIAP BIR3 domain (Sino Biological, Beijing, China) were used for all measurements; purchased Sino Biological, Beijing, China; assay: Fluorescence polarization inhibition (competition) assay; format: binding; details: 0.5 h; antagonist 50 µM; inhibition of protein-probe interaction

compound	unit-text	inhibition at 50 µM
CN[C@@H](C)C(=O)N[C@H](C(=O)N1CCC[C@H]1C(=O)NCP(=O)(C(C)(C)C)C(C)(C)C)C1CCCCC1	%	72
CN[C@@H](C)C(=O)N[C@H](C(=O)N1CCC[C@H]1C(=O)NC(C)P(=O)(Oc1ccccc1)Oc1ccccc1)C1CCCCC1 (stereo partly drawn)	%	69
CN[C@@H](C)C(=O)N[C@H](C(=O)N1CCC[C@H]1C(=O)NCP(=O)(C(C)C)C(C)C)C(C)C	%	32
CN[C@@H](C)C(=O)N[C@H](C(=O)N1CCC[C@H]1C(=O)NC(C)P(=O)(c1cc(C)cc(C)c1)c1cc(C)cc(C)c1)C(C)C (stereo partly drawn)	%	59.2
CCC(C)C(NC(=O)[C@@H]1CCCN1C(=O)[C@@H](NC(=O)[C@H](C)NC)C(C)C)P(=O)(Oc1ccccc1)Oc1ccccc1 (stereo partly drawn)	%	77.4
CN[C@@H](C)C(=O)N[C@H](C(=O)N1CCC[C@H]1C(=O)NCP(=O)(C(C)(C)C)C(C)(C)C)C(C)C	%	63.2
